# tgt: Hypoxia-inducible factor 1-alpha (Homo sapiens)
# assay: ATG_HIF1a_CIS: Attagene CIS-FACTORIAL HepG2 Assay for human Hypoxia Inducible Factor 1 (HIF1A) (AID 2282951)
# experimental.conditions: HepG2 Attagene cis-factorial HIF1a reporter transcription; actives raise or lower the signal
Calls of active or inactive are those of the source. The calls were made as follows: active = hit-call score of the fitted dose curve at least 0.9, where 1 is the maximum; inactive = score below 0.9.
Choose one outcome from this list and give only that: true for active, false for inactive

INSERT INTO results (compound, label) VALUES
  ('Cc1cc(=O)oc2cc(N(C)C)ccc12', 'false'),
  ('COc1cc(Cl)c(OC)cc1N', 'false');

Please let me know the test result on file for `CCOC(=O)C(C#N)=C(c1ccccc1)c1ccccc1` .
true

Please let me know the test result on file for `CSCCC=O` .
false

Please let me know the test result on file for `CCC(C)=O` .
false

Please let me know the test result on file for `ON=C1CCCCC1` .
false

Please let me know the test result on file for `COC(=O)c1ccc([N+](=O)[O-])cc1` .
false

Please let me know the test result on file for `CCCC(C)=O` .
false

====

# assay: ATG_NFI_CIS: Attagene CIS-FACTORIAL HepG2 Assay for human Nuclear Factor I (NFI) (AID 2282989)
# experimental.conditions: HepG2 cis-regulatory reporter, NFI response element transcription; actives raise or lower the signal
The source made the active and inactive calls. How the source made its calls: active means hit-call score of the fitted dose curve at least 0.9, where 1 is the maximum; inactive means score below 0.9.
Choose one outcome from this list and give only that: 1 = active, -1 = inactive

Please let me know the test result on file for `CCCC(=O)OCCc1ccccc1` .
-1

Please let me know the test result on file for `C=C1CC[C@H](O)C/C1=C/C=C1\CCC[C@]2(C)[C@@H]([C@H](C)/C=C/[C@H](C)C(C)C)CC[C@@H]12` .
-1

====

# assay: ATG_NRF2_ARE_CIS: Attagene CIS-FACTORIAL HepG2 Assay for human Nuclear Factor Erythroid 2 Related Factor 2 (NFR2) response to Antioxidant Response Elements (ARE) (AID 2282992);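 as to AC50: reporter mRNA level measured by RT-PCR and capillary electrophoresis fluorescence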
# experimental.conditions: HepG2 Attagene ARE/NRF2 reporter, transcription factor activity; actives raise or lower the signal
The source made the active and inactive calls. Rule for the calls: active = hit-call score of the fitted dose curve at least 0.9, where 1 is the maximum; inactive = score below 0.9.
measurement.label: AC50

Here's what some known entries look like.
INSERT INTO assay_data (compound, measurement_label, result) VALUES
  ('C=C[Si]1(C)O[Si](C)(C=C)O[Si](C)(C=C)O[Si](C)(C=C)O1 (stereo not given)', 'AC50', '12 µM (active)'),
  ('CCCCCCCCCCCCS(=O)(=O)Cl', 'AC50', 'inactive'),
  ('CS(=O)(=O)c1ccc(Cl)cc1', 'AC50', 'inactive'),
  ('Cc1c(Cl)cccc1[N+](=O)[O-]', 'AC50', 'inactive'),
  ('CCCCCCCCCC(=O)OC', 'AC50', 'inactive'),
  ('C#CC(C)(O)CC(C)C (stereo not given)', 'AC50', 'inactive'),
  ('CC(=O)OCCCc1ccccc1', 'AC50', 'inactive'),
  ('CC(C)CCOC(=O)c1ccccc1', 'AC50', 'inactive');

Given `CC(C)CCCCCCc1ccc(OCCOCCO)cc1` , state its recorded AC50.
inactive

Given `COC(=O)C=C(C)CCC=C(C)C` , state its recorded AC50.
36.1 µM (active)

Given `CC(=O)O[C@H]1C[C@@H]2CC[C@@]1(C)C2(C)C` , state its recorded AC50.
inactive

Given `NC(=S)NNC(N)=S` , state its recorded AC50.
inactive

Given `CN(C)CCOc1ccc(/C(=C(/CCCl)c2ccccc2)c2ccccc2)cc1` , state its recorded AC50.
2.47 µM (active)

====

# tgt: Signal transducer and activator of transcription 3 (Homo sapiens)
# assay: ATG_STAT3_CIS: Attagene CIS-FACTORIAL HepG2 Assay for human Signal Transducer and Activator of Transcription 3 (STAT3) (AID 2282963)
# experimental.conditions: HepG2, Attagene cis-factorial STAT3 reporter transcription; actives raise or lower the signal
Activity calls are given as the source filed them. How the source made its calls: active means hit-call score of the fitted dose curve at least 0.9, where 1 is the maximum; inactive means score below 0.9.
measurement.label: AC50

INSERT INTO results (compound, result) VALUES
  ('CN1CCOCC1', 'inactive'),
  ('C[C@@H]1CCN(C(=O)[C@H](CCCN=C(N)N)NS(=O)(=O)c2cccc3c2NC[C@H](C)C3)[C@@H](C(=O)O)C1', 'inactive'),
  ('C=C(CC(=O)O)C(=O)O', 'inactive'),
  ('C=CCOC(=O)CCCCCC', 'inactive'),
  ('COCCOCCOCCO', 'inactive');

Given `COc1cc(CCC(C)=O)ccc1O` , state its recorded AC50.
inactive

Given NC1CCCCC1N (stereo not given) , state its recorded AC50.
inactive

Given CCCCCCCCCCCCCC(=O)OCC(O)CO (stereo not given) , state its recorded AC50.
inactive

Given `CCCCCCCCC=CCCCCCCCC1=NCCN1CCO` , state its recorded AC50.
25.9 µM (active)

Given `CCCCCC(=O)CC` , state its recorded AC50.
inactive

====

# assay: ATG_VDRE_CIS: Attagene CIS-FACTORIAL HepG2 Assay for human Vitamin D Receptor Element (VDRE) (AID 2282968)
# experimental.conditions: HepG2 VDRE cis-reporter transcription, actives raise or lower the signal
Active and inactive are the calls of the source. The calls were made as follows: active = hit-call score of the fitted dose curve at least 0.9, where 1 is the maximum; inactive = score below 0.9.
Choose one outcome from this list and give only that: active, inactive

Known results for molecules:
INSERT INTO results (molecule, label) VALUES
  ('c1ccc(CCc2ccccc2)cc1', 'inactive'),
  ('C#CC(C)N(C)C(=O)Nc1ccc(Cl)cc1 (stereo not drawn)', 'inactive'),
  ('O=C1CCCC=CCCCCCCCCCC1', 'active'),
  ('CCN(CCN)c1cccc(C)c1', 'active'),
  ('Clc1cc(Cl)c(-c2c(Cl)c(Cl)cc(Cl)c2Cl)cc1Cl', 'inactive'),
  ('O=C(O)COCC(=O)O', 'inactive');

Please let me know the test result on file for `CCc1cc(Cc2cc(CC)cc(C(C)(C)C)c2O)c(O)c(C(C)(C)C)c1` .
active

Please let me know the test result on file for `CCN(CC)C(=O)N(CC)CC` .
inactive

Please let me know the test result on file for `O=C(O)CCCCCCCCCCCC(=O)O` .
inactive

Please let me know the test result on file for `C[C@H](CCC(=O)NCC(=O)O)[C@H]1CC[C@H]2[C@@H]3[C@H](O)C[C@@H]4C[C@H](O)CC[C@]4(C)[C@H]3C[C@H](O)[C@]12C` .
inactive

Please let me know the test result on file for `CC(C)(C)C1=CC(=O)C(C(C)(C)C)=CC1=O` .
active

Please let me know the test result on file for `C=CC(=O)OCCCC` .
inactive

Please let me know the test result on file for `CCCC(=O)OC(C)(C)Cc1ccccc1` .
inactive

====

# Read-out: Interleukin 6 (IL6), IL6 (gene 3569)
# assay: BSK_BT_xIL6: BioMAP Diversity Plus: BT Assay for Interleukin 6 (IL6) Biomarker Activity (AID 2284228)
# experimental.conditions: primary human B cells with PBMC
# Method: BSK_BT is a cell-based, multiplexed-readout assay that uses B cell and peripheral blood mononuclear cells, a human vascular primary cell co-culture, with measurements taken at 24 hours after chemical dosing in a microplate: 96-well plate.BSK_BT_xIL6 is an assay component measured in the BSK_BT assay. […] Using a type of cytokine quantitation reporter, gain or loss-of-signal activity can be used to understand protein changes. […]
The source made the active and inactive calls. Rule for the calls: active = hit-call score of the fitted dose curve at least 0.9, where 1 is the maximum; inactive = score below 0.9.
measurement.label: AC50

Here's what some known entries look like.
INSERT INTO measurements (molecule, result) VALUES
  ('CC1(C)C2=CCCC(C)(C)[C@]23CC[C@H]1C3', 'inactive'),
  ('COc1ccc(CCN2CCC(Nc3nc4ccccc4n3Cc3ccc(F)cc3)CC2)cc1', '3.52 µM (active)'),
  ('c1ccc2cc(Nc3ccc(Nc4ccc5ccccc5c4)cc3)ccc2c1', '1.12 µM (active)'),
  ('CS(=O)(=O)c1ccc(C2=C(c3ccccc3)C(=O)OC2)cc1', 'inactive');

Given `Oc1c(Cl)cc(Cl)c(Cl)c1Cc1c(O)c(Cl)cc(Cl)c1Cl` , state its recorded AC50.
inactive

Given `C=C(C)C(=O)OCCOCCOCCOCCOC(=O)C(=C)C` , state its recorded AC50.
inactive

Given CC(C=O)Cc1ccc(C(C)(C)C)cc1 (stereo unspecified) , state its recorded AC50.
inactive

Given `CCCCCC(C=O)=Cc1ccccc1` , state its recorded AC50.
inactive

Given `CN(c1nccc(=O)[nH]1)C1CCN(c2nc3ccccc3n2Cc2ccc(F)cc2)CC1` , state its recorded AC50.
inactive

Given `COc1ccc(OC)c(N=Nc2c(O)ccc3ccccc23)c1` , state its recorded AC50.
inactive

Given `Clc1cc(Cl)c(-c2c(Cl)c(Cl)cc(Cl)c2Cl)cc1Cl` , state its recorded AC50.
inactive

====

# assay: CCTE_Deisenroth_AIME_384WELL_CTox_Inactive: Cytotoxicity Assessment (CTOX) in CCTE's 384-well Estrogen Receptor Transactivation Assay without AIME metabolic competence (metabolism negative), Deisenroth Lab (AID 2284039);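 also: cell viability via live-cell protease substrate cleaved to fluorescent probe; cells exposed 24 h to medium preincubated 2 h with alginate-water beads without S9; loss of fluorescence signal means loss of viability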
Results filed as inconclusive are left out. Calls of active or inactive are those of the source. The calls were made as follows: active = hit-call score of the fitted dose curve at least 0.9, where 1 is the maximum; inconclusive = response in the unintended direction; inactive = score below 0.9.
measurement.label: AC50

Here's what some known entries look like.
INSERT INTO assay_data (molecule, measurement_label, result) VALUES
  ('O=C(CC(=O)c1ccccc1)c1ccccc1', 'AC50', 'inactive'),
  ('CCCCCCCCCCCC(=O)OCC(O)CO (configuration not stated)', 'AC50', 'inactive'),
  ('COCCOCCOCCO', 'AC50', 'inactive'),
  ('Nc1ccc2cc(S(=O)(=O)O)cc(O)c2c1N=Nc1ccccc1C(F)(F)F', 'AC50', '38.2 µM (active)');

Given `CC(C)CCCCCCc1ccc(OCCOCCO)cc1` , state its recorded AC50.
inactive

Given `Nc1ccc(N)c2c1C(=O)c1ccccc1C2=O` , state its recorded AC50.
28.9 µM (active)

Given `O=[N+]([O-])c1ccc(O)cc1C(F)(F)F` , state its recorded AC50.
34.9 µM (active)

Just for reference, PubChem BioAssay (EPA / NIEHS) is where these values come from.
